assay: Metabolic stability in mouse liver microsomes (MLM); assay type: in vitro ADME; settings: mouse, pooled mouse liver microsomes, pH 7.4, MLM (CD-1), 0.50 mg protein per mL
readoutName: microsomal CLint at 1 μM (µL/min/mg)
# output: bare number, implied unit µL/min/mg

For CCN(CC)C(=O)[C@@H]1C=C2c3cccc4[nH]cc(c34)C[C@H]2N(CCc2ccccc2OC)C1 [Compound 11] , what is its reported microsomal CLint at 1 μM?
1510

CCN(CC)C(=O)[C@@H]1C=C2c3cccc4[nH]cc(c34)C[C@H]2N(Cc2cccc(OC)c2)C1 [Compound 18] ?
524

Again, but for C=CCN1C[C@@H](C(=O)N[C@H](C)CC)C=C2c3cccc4[nH]cc(c34)C[C@H]21 [Compound 8a]
1660

Another: CCC(CC)NC(=O)[C@H]1C=C2c3cccc4[nH]cc(c34)C[C@H]2N(C)C1 [Int14a]
816

Same read-out for CCN(CC)C(=O)[C@@H]1C=C2c3cccc4[nH]cc(c34)C[C@H]2N(CCCF)C1 [Compound 2] ?
520

Moving on to CCN(CC)C(=O)[C@@H]1C=C2c3cccc4[nH]cc(c34)C[C@H]2N(Cc2ccc(OC)cc2)C1 [Compound 19]
193

Param item: CCN(CC)C(=O)[C@@H]1C=C2c3cccc4[nH]cc(c34)C[C@H]2N(CCc2cccc(OC)c2)C1 [Compound 20]
1550

# iterate: CCCN1C[C@H](C(=O)NC(CC)CC)C=C2c3cccc4[nH]cc(c34)C[C@H]21 [Compound 6]
2420
